# Test system: LOX IMVI
# PROTOCOL DETAILS: NCI tumour cell line growth inhibition, 48 h
Active and inactive are the calls of the source. No stated cut-off is given here; in the data, active = GI50 up to about 1.1 µM and inactive = higher.
Recorded GI50 by entry

Enquiry: Please give the measured GI50 for this compound: CC(C)(C)c1cc(OCc2nn3c(Cc4ccccc4)nnc3s2)c(Cl)cc1OCc1nn2c(Cc3ccccc3)nnc2s1
Return: 37.1 µM (inactive)

###

# System: 786-0
# PROTOCOL DETAILS: NCI tumour cell line growth inhibition, 48 h
Active and inactive are the calls of the source. Rule as the data show it: active = GI50 up to about 1.1 µM and inactive = higher.
Entry note: the call must match one of Yes for active, No for inactive

CCOC(=O)/C=C(/OCC)[C@@H]1C(C(=O)c2ccc(Cl)cc2)[C@H]1/C(=C\C(=O)OCC)OCC (stereo not given in full) | No
Nc1ccc2nc(N)n[n+]([O-])c2c1 | No
O=C1CC(Cl)c2c1csc2Br (stereo not given) | No
Cc1cccc(/C=N/NC(=S)N2CCCC2)n1 | Yes

Enquiry: Recorded call for CCOC(=O)c1c(SC(=O)/C=C/c2ccccc2)n(-c2ccccc2)c(=S)n(-c2ccccc2)c1=O ?
Return: No
